From: paper PMC10539519

Substrate: N[C@@H](Cc1ccccc1)C(=O)O
Experiment: purified protein
Format: biochemical, Escherichia coli
Details: co-substrate α-ketoglutarate (fixed, 0.1563–1.25 mM range), 16 µM PLP, 5 mM NAD+, 100 mM potassium phosphate pH 8, 37 °C
Measure name: Km (mM)
# number only, unit mM dropped from output

Q: Quick one: Km of E. coli aspartate aminotransferase (AAT) (Escherichia coli K-12; K37F/N64S/T43C) (protein, full-length, N-terminal His-tag, expressed in E. coli BL21-Gold (DE3), Ni-NTA purified; 90 kDa homodimer, PLP-dependent) MFENITAAPADPILGLADLFRADERPGKINLGIGVYFDETGKCPVLTSVKKAEQYLLENETTKSYLGIDGIPEFGRCTQELLFGKGSALINDKRARTAQTPGGTGALRVAADFLAKNTSVKRVWVSNPSWPNHKSVFNSAGLEVREYAYYDAENHTLDFDALINSLNEAQAGDVVLFHGCCHNPTGIDPTLEQWQTLAQLSVEKGWLPLFDFAYQGFARGLEEDAEGLRAFAAMHKELIVASSYSKNFGLYNERVGACTLVAADSETVDRAFSQMKAAIRANYSNPPAHGASVVATILSNDALRAIWEQELTDMRQRIQRMRQLFVNTLQEKGANRDFSFIIKQNGMFSFSGLTKEQVLRLREEFGVYAVASGRVNVAGMTPDNMAPLCEAIVAVL ?
A: 12

Q: Reported Km for E. coli aspartate aminotransferase (AAT) (Escherichia coli K-12; K37Y/N285S/N64L/T104S/T43I/V35L) (protein, full-length, N-terminal His-tag, expressed in E. coli BL21-Gold (DE3), Ni-NTA purified; 90 kDa homodimer, PLP-dependent) MFENITAAPADPILGLADLFRADERPGKINLGIGLYYDETGKIPVLTSVKKAEQYLLENETTKLYLGIDGIPEFGRCTQELLFGKGSALINDKRARTAQTPGGSGALRVAADFLAKNTSVKRVWVSNPSWPNHKSVFNSAGLEVREYAYYDAENHTLDFDALINSLNEAQAGDVVLFHGCCHNPTGIDPTLEQWQTLAQLSVEKGWLPLFDFAYQGFARGLEEDAEGLRAFAAMHKELIVASSYSKNFGLYNERVGACTLVAADSETVDRAFSQMKAAIRANYSSPPAHGASVVATILSNDALRAIWEQELTDMRQRIQRMRQLFVNTLQEKGANRDFSFIIKQNGMFSFSGLTKEQVLRLREEFGVYAVASGRVNVAGMTPDNMAPLCEAIVAVL : what is it?
A: 0.27

Q: Recorded Km for E. coli aspartate aminotransferase (AAT) (Escherichia coli K-12; K37I/N64S/T43F/V35A) (protein, full-length, N-terminal His-tag, expressed in E. coli BL21-Gold (DE3), Ni-NTA purified; 90 kDa homodimer, PLP-dependent) MFENITAAPADPILGLADLFRADERPGKINLGIGAYIDETGKFPVLTSVKKAEQYLLENETTKSYLGIDGIPEFGRCTQELLFGKGSALINDKRARTAQTPGGTGALRVAADFLAKNTSVKRVWVSNPSWPNHKSVFNSAGLEVREYAYYDAENHTLDFDALINSLNEAQAGDVVLFHGCCHNPTGIDPTLEQWQTLAQLSVEKGWLPLFDFAYQGFARGLEEDAEGLRAFAAMHKELIVASSYSKNFGLYNERVGACTLVAADSETVDRAFSQMKAAIRANYSNPPAHGASVVATILSNDALRAIWEQELTDMRQRIQRMRQLFVNTLQEKGANRDFSFIIKQNGMFSFSGLTKEQVLRLREEFGVYAVASGRVNVAGMTPDNMAPLCEAIVAVL , please?
A: 2.6

Q: Data request, read-out Km, for E. coli aspartate aminotransferase (AAT) (Escherichia coli K-12; K37F/N64Y/T43I) (protein, full-length, N-terminal His-tag, expressed in E. coli BL21-Gold (DE3), Ni-NTA purified; 90 kDa homodimer, PLP-dependent) MFENITAAPADPILGLADLFRADERPGKINLGIGVYFDETGKIPVLTSVKKAEQYLLENETTKYYLGIDGIPEFGRCTQELLFGKGSALINDKRARTAQTPGGTGALRVAADFLAKNTSVKRVWVSNPSWPNHKSVFNSAGLEVREYAYYDAENHTLDFDALINSLNEAQAGDVVLFHGCCHNPTGIDPTLEQWQTLAQLSVEKGWLPLFDFAYQGFARGLEEDAEGLRAFAAMHKELIVASSYSKNFGLYNERVGACTLVAADSETVDRAFSQMKAAIRANYSNPPAHGASVVATILSNDALRAIWEQELTDMRQRIQRMRQLFVNTLQEKGANRDFSFIIKQNGMFSFSGLTKEQVLRLREEFGVYAVASGRVNVAGMTPDNMAPLCEAIVAVL
A: 0.42
